This collection of values is drawn from ChEMBL document CHEMBL2375301.

- Test system: NCI-H661
- measurement protocol: Cytotoxicity against human NCI-H661 cells after 72 hrs by WST-8 assay
- Format: functional, cell-based
- measurement conditions: NCI-H661, 72 h
measure name: IC50 (µM)
# unit: µM | format: bare number

> print(dat)
                                   compound  measure.name  result.unit  assay.result
1  Cc1nc(Nc2ncc(C(=O)Nc3c(C)cccc3Cl)s2)cc(N2CCN(CCO)CC2)n1          IC50           µM           7.8

For the compound COc1cc2c(Nc3nc4ccc(C(=O)Nc5c(C)cc(C)cc5C)cc4s3)ncnc2cc1OCCCN1CCCCC1C (stereo not drawn) , report IC50.
8.8

# return recorded IC50 for entry "CCN(CC)CCCOc1cc2ncnc(Nc3nc4ccc(C(=O)Nc5c(C)cccc5C)cc4s3)c2cc1OC"
66.5

* * *

- target of assay: Tyrosine-protein kinase ABL1 (Homo sapiens) (UniProt P00519)
- Sequence (P00519 whole entry): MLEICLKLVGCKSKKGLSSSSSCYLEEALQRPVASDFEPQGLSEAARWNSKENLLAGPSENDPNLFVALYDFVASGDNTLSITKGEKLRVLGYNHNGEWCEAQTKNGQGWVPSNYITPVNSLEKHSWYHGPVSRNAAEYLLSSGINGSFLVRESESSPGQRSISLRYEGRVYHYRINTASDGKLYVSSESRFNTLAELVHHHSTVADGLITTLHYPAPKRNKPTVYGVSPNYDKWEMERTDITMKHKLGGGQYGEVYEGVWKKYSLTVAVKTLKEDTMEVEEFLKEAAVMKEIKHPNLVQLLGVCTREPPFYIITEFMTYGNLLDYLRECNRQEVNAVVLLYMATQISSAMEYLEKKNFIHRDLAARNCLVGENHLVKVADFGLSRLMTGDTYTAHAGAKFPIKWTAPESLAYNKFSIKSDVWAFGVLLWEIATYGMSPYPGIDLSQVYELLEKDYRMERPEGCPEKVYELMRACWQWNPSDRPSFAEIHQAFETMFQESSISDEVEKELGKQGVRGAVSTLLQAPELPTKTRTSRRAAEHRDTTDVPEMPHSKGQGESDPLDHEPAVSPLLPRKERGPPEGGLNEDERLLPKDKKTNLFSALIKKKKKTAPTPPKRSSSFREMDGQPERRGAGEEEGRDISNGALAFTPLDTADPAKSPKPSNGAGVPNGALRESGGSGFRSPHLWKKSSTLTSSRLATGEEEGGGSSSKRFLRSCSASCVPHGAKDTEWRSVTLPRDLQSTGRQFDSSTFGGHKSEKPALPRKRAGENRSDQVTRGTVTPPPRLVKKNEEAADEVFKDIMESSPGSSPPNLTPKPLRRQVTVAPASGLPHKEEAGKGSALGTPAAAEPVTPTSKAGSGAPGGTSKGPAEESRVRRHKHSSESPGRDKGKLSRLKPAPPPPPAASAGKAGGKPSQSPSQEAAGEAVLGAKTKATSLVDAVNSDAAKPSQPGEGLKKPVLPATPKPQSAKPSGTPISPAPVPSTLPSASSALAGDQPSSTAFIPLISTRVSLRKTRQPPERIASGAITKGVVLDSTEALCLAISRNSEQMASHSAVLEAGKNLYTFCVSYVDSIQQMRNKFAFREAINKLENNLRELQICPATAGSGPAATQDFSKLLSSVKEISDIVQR
- measurement conditions: at 10 µM
- Description: Inhibition of human recombinant ABL at 10 uM relative to control
Condition met means recorded inhibition is 60% or above; Condition not met means it is below 60%.

> print(dat)
                                   compound                           target.of.assay         class.name
1  COc1cc2c(Nc3nc4ccc(C(=O)Nc5c(C)cc(C)cc5C)cc4s3)ncnc2cc1OCCCN1CCCC1  Tyrosine-protein kinase ABL1 (Homo sapiens) (UniProt P00519)      Condition met
2  COc1cc2c(Nc3nc4ccc(C(=O)Nc5c(C)cc(C)cc5C)cc4s3)ncnc2cc1OCCCN1CCOCC1  Tyrosine-protein kinase ABL1 (Homo sapiens) (UniProt P00519)      Condition met
3  COc1cc2c(Nc3nc4ccc(C(=O)Nc5c(C)cccc5C)cc4s3)ncnc2cc1OCCCN1CCCC1  Tyrosine-protein kinase ABL1 (Homo sapiens) (UniProt P00519)  Condition not met
4  COc1cc2c(Nc3nc4ccc(C(=O)Nc5c(C)cccc5C)cc4s3)ncnc2cc1OCCCN1CCCCC1C (centres undefined)  Tyrosine-protein kinase ABL1 (Homo sapiens) (UniProt P00519)  Condition not met
5  COc1cc2c(Nc3nc4ccc(C(=O)Nc5c(C)cccc5Cl)cc4s3)ncnc2cc1OCCCN1CCCCC1C (centres undefined)  Tyrosine-protein kinase ABL1 (Homo sapiens) (UniProt P00519)      Condition met
6  COc1cc2c(Nc3nc4ccc(C(=O)Nc5c(C)cc(C)cc5C)cc4s3)ncnc2cc1OCCCN1CCCCC1  Tyrosine-protein kinase ABL1 (Homo sapiens) (UniProt P00519)      Condition met

In plain terms: is recorded inhibition at least 60% for "COc1cc2c(Nc3nc4ccc(C(=O)Nc5c(C)cccc5Cl)cc4s3)ncnc2cc1OCCCN1CCC(C)CC1" ?
Condition not met

Is the recorded value of inhibition equal to or greater than 60% for this compound? "COc1cc2c(Nc3nc4ccc(C(=O)Nc5c(C)cccc5Cl)cc4s3)ncnc2cc1OCCCN1CCCC1"
Condition met

Is the recorded value of inhibition equal to or greater than 60% for this compound? "COc1cc2c(Nc3nc4ccc(C(=O)Nc5c(C)cccc5Cl)cc4s3)ncnc2cc1OCCCN1CCOCC1"
Condition not met

* * *

- System: HCT-116
- measurement protocol: Cytotoxicity against human HCT116 cells after 72 hrs by WST-8 assay
- Format: functional, cell-based
- measurement conditions: HCT-116, 72 h
measure name: pIC50
Scale: negative log10 of molar concentration, which is what pIC50 denotes.

> print(dat)
                                 mol.smiles  target.of.assay  measure.name  assay.result
1  COc1cc2c(Nc3nc4ccc(C(=O)Nc5c(C)cccc5Cl)cc4s3)ncnc2cc1OCCCN1CCCCC1          HCT-116         pIC50          4.63

Give the observed pIC50 of "COc1cc2c(Nc3nc4ccc(C(=O)Nc5c(C)cccc5Cl)cc4s3)ncnc2cc1OCCCN1CCC(C)CC1" for HCT-116.
5.04
